Kindly state LogP for each of the entries shown.
Conditions: pH 2.7
Give bare numbers.

The cases that follow already have their LogP on record.
1. C=C(C)COC(=O)Nc1nc(CO/N=C(/c2ccccc2)c2nc(=O)on2C)cs1 [Example 94] = 2.92
2. Cn1oc(=O)nc1C(=NOCc1csc(NC(=O)C2(C)CC2)n1)c1ccccc1 [Example 16] = 2.66
3. Cc1cccc2c1OC(C(=O)Nc1nc(CON=C(c3ccccc3)c3nc(=O)on3C)cs1)CO2 (stereo not drawn) [Example 25] = 3.42

List the reported LogP of each compound below.
1. Cn1oc(=O)nc1C(=NOCc1csc(NC(=O)OCCCCC(F)(F)F)n1)c1ccccc1 [Example 82]
2. Cn1oc(=O)nc1/C(=N\OCc1csc(NC(=O)OCCCCl)n1)c1ccccc1 [Example 93]
3. C#CCCCOC(=O)Nc1nc(CON=C(c2ccccc2)c2nc(=O)on2C)cs1 [Example 29]
4. C#CCOC(=O)Nc1nc(CON=C(c2ccccc2)c2nc(=O)on2C)cs1 [Example 67]
5. CC#CCCOC(=O)Nc1nc(CO/N=C(/c2ccccc2)c2nc(=O)on2C)cs1 [Example 54]

[3.27, 2.80, 2.77, 2.49, 2.80]

Each compound below has a recorded value; state its LogP.
1. Cn1oc(=O)nc1C(=NOCc1csc(NC(=O)C2(C)CCCCC2)n1)c1ccccc1 [Example 74]
2. Cn1oc(=O)nc1C(=NOCc1csc(NC(=O)OCCCC2CCCC2)n1)c1ccccc1 [Example 66]
3. COc1cccc(C(=NOCc2csc(NC(=O)COc3ccccc3)n2)c2nc(=O)on2C)c1 [Example 84]
4. Cn1oc(=O)nc1C(=NOCc1csc(NC(=O)C2Cc3ccccc3O2)n1)c1ccccc1 (stereo not drawn) [Example 24]
5. Cn1oc(=O)nc1C(=NOCc1csc(NC(=O)c2csc3ccccc23)n1)c1ccccc1 [Example 89]
6. Cn1oc(=O)nc1/C(=N\OCc1csc(NC(=O)OCC(C)(C)C)n1)c1ccccc1 [Example 61]
7. Cn1oc(=O)nc1/C(=N\OCc1csc(NC(=O)CCC2CCCCC2)n1)c1ccccc1 [Example 41]

1: 3.58; 2: 4.36; 3: 3.02; 4: 3.06; 5: 3.57; 6: 3.39; 7: 3.92

Each compound below has a recorded value; state its LogP.
1. Cn1oc(=O)nc1C(=NOCc1csc(NC(=O)OC(C)(C)C)n1)c1ccccc1 [Example 20]
2. COc1cccc(/C(=N/OCc2csc(NC(=O)C(C)(C)Oc3ccccc3)n2)c2nc(=O)on2C)c1 [Example 36]

3.06
3.63

###

Provide the reported LogP of each item.
Details: pH 2.7
Numbers only.

Please review the entries below; each comes with its answer.
1. Cn1oc(=O)nc1C(=NOCc1csc(NC(=O)COc2ccccc2)n1)c1ccccc1 [Example 8] = 2.98
2. COc1cccc(C(=NOCc2csc(NC(=O)OCCc3ccccc3)n2)c2nc(=O)on2C)c1 [Example 85] = 3.39
3. Cn1oc(=O)nc1C(=NOCc1csc(NC(=O)OCCCC2CC2)n1)c1ccccc1 [Example 79] = 3.51

// moving on: another record for LogP
// Input: Cn1oc(=O)nc1C(=NOCc1csc(NC(=O)OCC#Cc2ccccc2)n1)c1ccccc1 [Example 73] . Output its LogP only.
3.44
